- measurement notes: Caspase-3/7 induction in CHO-K1 cells by small molecules, qHTS cell viability counter screen (AID 1346979); also: % is scaled to controls: 0 for no effect and ±100 for the full control effect; nearly all actives have a fitted effect of over 35% in size
- condition description: CellTiter-Fluor fluorescence, 17 h; series mostly up to 92.4 µM
Results filed as inconclusive are left out. The source made the active and inactive calls. Calls follow the shape of the dose curve; as a rule, active = well fitted cell-killing curve with a large enough effect in the repeat runs; inconclusive = weak or mixed curves, or effect the other way; inactive = no such curve, though single readings can be large or run the other way.
test readout: activity change, negative = cytotoxicity

Previously resolved entries follow.
# compound, activity change, negative = cytotoxicity
rows = [
    ("CCCC(=O)O[C@]1(C(=O)COC(=O)CC)CC[C@H]2[C@@H]3CCC4=CC(=O)CC[C@]4(C)[C@H]3[C@@H](O)C[C@@]21C", "11.7% [at 19 µM] (inactive)"),
    ("CC1CN(c2cc3c(cc2F)c(=O)c(C(=O)O)cn3-c2ccc(F)cc2F)CCN1 (stereo unspecified)", "-1.36% [at 8.39 µM] (inactive)"),
    ("C=CCCCCCCCCCCCCCCCC", "7.02% [at 8.39 µM] (inactive)"),
]

Req: Form field: reported activity change, negative = cytotoxicity of "[O]=[Bi]"
Resp: -0.807% [at 8.39 µM] (inactive)

Req: Entry "CN1CCN(c2c(F)cc3c(=O)c(C(=O)O)cn4c3c2OCN4C)CC1" has what activity change, negative = cytotoxicity?
Resp: 3.06% [at 19 µM] (inactive)

Req: What activity change, negative = cytotoxicity value was documented for this compound, "CCCCCCCCCCCCCCCCBr" ?
Resp: 4.02% [at 19 µM] (inactive)

====

- system under test: Cytochrome P450 2D6 (Homo sapiens) (UniProt P10635)
- Sequence (P10635 whole entry, looked up): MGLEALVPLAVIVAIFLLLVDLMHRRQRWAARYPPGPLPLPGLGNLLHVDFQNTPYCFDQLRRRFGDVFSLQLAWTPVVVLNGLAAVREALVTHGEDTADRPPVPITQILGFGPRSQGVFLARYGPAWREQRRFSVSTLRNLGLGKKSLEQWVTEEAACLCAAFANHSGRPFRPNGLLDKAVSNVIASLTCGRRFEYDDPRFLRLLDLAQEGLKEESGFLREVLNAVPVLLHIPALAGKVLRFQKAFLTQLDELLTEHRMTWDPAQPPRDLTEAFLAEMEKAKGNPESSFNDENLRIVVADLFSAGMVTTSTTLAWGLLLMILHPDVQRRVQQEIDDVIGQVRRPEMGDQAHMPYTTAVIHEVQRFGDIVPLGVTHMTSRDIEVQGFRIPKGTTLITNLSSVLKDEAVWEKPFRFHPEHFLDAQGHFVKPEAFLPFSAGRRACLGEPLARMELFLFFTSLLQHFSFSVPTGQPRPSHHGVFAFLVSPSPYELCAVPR
- measurement notes: Cytochrome P450 Family 2 Subfamily D Member 6 (CYP2D6) small molecule antagonists: luciferase reporter qHTS assay (AID 1671196); also: nearly all actives have a fitted effect of over 50% in size
- condition description: P450-Glo CYP2D6 enzyme assay, luciferin luminescence, 1 h; series mostly up to 115 µM
Records with an inconclusive call do not appear. Calls of active or inactive are those of the source. Calls follow the shape of the dose curve; as a rule, active = well fitted inhibition curve with a large enough effect in the repeat runs; inconclusive = weak or mixed curves; inactive = no such curve, though single readings can be large or run the other way.
Respond with a class label; see active, inactive

Before answering, review these 4 worked examples.
# compound, system under test, class assignment
measured = [
    ("CCCOc1ccc(S(=O)(=O)N2CCN(CC)CC2)cc1-c1nc2c(CC)n(Cc3ccccn3)nc2c(=O)[nH]1", "Cytochrome P450 2D6 (Homo sapiens) (UniProt P10635)", "inactive"),
    ("CCC(Cc1ccccc1)(C(=O)c1ccc(N2CCOCC2)cc1)N(C)C (stereo not given)", "Cytochrome P450 2D6 (Homo sapiens) (UniProt P10635)", "active"),
    ("CCCCCCCCCCCC[N+](C)(C)CCCS(=O)(=O)[O-]", "Cytochrome P450 2D6 (Homo sapiens) (UniProt P10635)", "inactive"),
    ("CC(=O)Oc1ccc(C(=C2CCCCC2)c2ccc(OC(C)=O)cc2)cc1", "Cytochrome P450 2D6 (Homo sapiens) (UniProt P10635)", "active"),
]

Next, consider the following compound.
Req: What did this assay record as the result for CCOc1cc(N)c(Cl)cc1C(=O)NCC1CN(Cc2ccc(F)cc2)CCO1 (stereo not given) ?
Resp: inactive

====

- system under test: Nuclear receptor subfamily 1 group I member 3 (Homo sapiens)
- measurement notes: qHTS assay to identify small molecule agonists of the constitutive androstane receptor (CAR) signaling pathway (AID 1224839); also: nearly all actives have a fitted effect of over 15% in size;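 as to activation: HepG2 cells stably carrying human CAR and a CYP2B6 luciferase reporter; % is scaled to controls: 0 for no effect and ±100 for the full control effect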
- condition description: HepG2 hCAR CYP2B6-luciferase, agonist mode, 24 h; series mostly up to 92.4 µM
Results filed as inconclusive are left out. Calls of active or inactive are those of the source. The call rests on the fitted dose curve; in most records, active means well fitted activation curve with a large enough effect in the repeat runs; inconclusive means weak or mixed curves; inactive means no such curve, though single readings can be large or run the other way.
Valid outcomes are listed here; reply with one: yes (1) (active), no (0) (inactive)

Before answering, review these 3 worked examples.
# compound, class assignment
rows = [
    ("CCCCCCCC/C=C\\CCCCCCCC(=O)OC", "no (0)"),
    ("CNC(=O)N(c1ccccc1)c1ccccc1", "no (0)"),
    ("Oc1cc(O)c(Cl)cc1Cl", "no (0)"),
]

Req: Which outcome was assigned to CC(CCc1ccc2c(c1)OCO2)NN (centres undefined) in this test?
Resp: no (0)

Req: Look up the recorded call for "O=C(NCCCN1CCOCC1)c1ccc(Cl)cc1" in this test.
Resp: no (0)

Req: Which outcome was entered for the compound "CO[C@@]12[C@H](COC(N)=O)C3=C(C(=O)C(C)=C(N)C3=O)N1C[C@@H]1N[C@@H]12" in this test?
Resp: no (0)

Req: Test call for this compound, please: "CC(=O)Nc1ccccc1C"
Resp: no (0)

Req: Kindly provide the recorded test outcome for the following compound: "CNC(=S)NC"
Resp: no (0)

Req: I'd appreciate the recorded outcome for "Nc1ccc(C(=O)OCCCOC(=O)c2ccc(N)cc2)cc1" from this test.
Resp: yes (1)

Req: Assay result, entry "CCCCCCOC(=O)CCCCCCCC(=O)OCCCCCC" — outcome?
Resp: no (0)

Req: Hey, what did the test say about "C[C@@H]1C[C@H]2[C@@H]3CCC4=CC(=O)C=C[C@]4(C)[C@@]3(F)[C@@H](O)C[C@]2(C)[C@H]1C(=O)CO" ?
Resp: no (0)

Req: Returns: the outcome recorded for CCC(C(=O)OCCN(CC)CC)c1ccccc1 (centres undefined) in this assay.
Resp: no (0)
